Target: T1, Human hexokinase II (HK‐II), recombinant (human, UniProt P52789 1-917, fluorescently labeled using a NanoTemper BLUE protein‐labeling kit (in the MST))
T1 chain: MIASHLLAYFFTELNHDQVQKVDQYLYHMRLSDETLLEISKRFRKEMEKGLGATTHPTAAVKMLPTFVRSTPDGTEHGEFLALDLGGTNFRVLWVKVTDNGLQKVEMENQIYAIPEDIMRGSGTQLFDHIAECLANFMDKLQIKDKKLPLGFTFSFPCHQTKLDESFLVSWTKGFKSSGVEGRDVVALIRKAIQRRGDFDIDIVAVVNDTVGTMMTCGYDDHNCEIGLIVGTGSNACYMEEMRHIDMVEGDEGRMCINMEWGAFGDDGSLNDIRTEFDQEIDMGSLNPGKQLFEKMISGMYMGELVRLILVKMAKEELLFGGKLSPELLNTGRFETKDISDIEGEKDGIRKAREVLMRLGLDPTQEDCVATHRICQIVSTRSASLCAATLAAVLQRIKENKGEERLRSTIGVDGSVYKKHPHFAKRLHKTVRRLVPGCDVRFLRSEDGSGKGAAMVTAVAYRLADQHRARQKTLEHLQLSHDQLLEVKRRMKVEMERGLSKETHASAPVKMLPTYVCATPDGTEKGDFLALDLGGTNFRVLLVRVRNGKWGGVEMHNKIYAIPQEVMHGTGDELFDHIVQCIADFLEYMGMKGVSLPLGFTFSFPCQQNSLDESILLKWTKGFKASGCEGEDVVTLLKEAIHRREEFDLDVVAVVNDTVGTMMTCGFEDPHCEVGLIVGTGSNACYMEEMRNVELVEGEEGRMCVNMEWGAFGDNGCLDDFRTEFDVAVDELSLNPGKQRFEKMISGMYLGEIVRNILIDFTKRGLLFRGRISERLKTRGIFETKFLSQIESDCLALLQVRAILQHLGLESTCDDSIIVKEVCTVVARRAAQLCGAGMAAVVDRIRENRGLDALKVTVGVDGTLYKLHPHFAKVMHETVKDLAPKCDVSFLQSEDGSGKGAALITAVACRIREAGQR
Assay: MST
METRIC: Kd (µM)
# value in µM; strip the unit string

## Input GET /values?readout=Kd&item= RQIKIWFQNRRMKWKKSWTWEKKLETAVNLAWTAGNSNKWTWK (amino acids added to form a loop‐shaped tryptophan zipper (N‐terminal arm); amino acids added to form a loop‐shaped tryptophan zipper (C‐terminal arm); 43 residues as printed; source: synthetic peptide (GL Biochem, > 85% purity)) [Antp‐LP4]
## Output 7.1
